TEST TARGET: T1, serum resistance-associated protein (SRA) from Trypanosoma brucei rhodesiense, recombinant SRA (SEQ ID NO: … (Trypanosoma brucei rhodesiense, UniProt O96637 31-274))
T1 construct: also called SRA protein
T1 sequence: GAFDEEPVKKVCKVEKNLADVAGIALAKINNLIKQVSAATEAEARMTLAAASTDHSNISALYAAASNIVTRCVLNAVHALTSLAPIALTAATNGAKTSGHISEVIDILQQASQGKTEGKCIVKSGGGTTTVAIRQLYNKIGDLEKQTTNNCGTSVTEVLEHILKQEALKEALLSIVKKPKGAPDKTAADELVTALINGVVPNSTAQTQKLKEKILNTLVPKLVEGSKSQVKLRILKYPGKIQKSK
MEASUREMENT DESCRIPTION: SPR, mAb captured, 25C, pH 7.4
Catalogue of kon values

- BINDER: "H1H10059P (antibody, V domains shown, Fully human antibody with human IgG1 Fc (prefix H1H)) VH: QVQLVQSGAEVKKPGASVKVSCKAAGFTFIGYYIHWVRQAPGQGLEWMGWINSNSGDKDSAPKFQDRVTMTRDTSISTAYMELSRLRSDDTAVYFCAREGYNFGHFDYWGQGTLVTVSS VL: DIVMTQTPLSSPVTLGQPASISCRSSQSLVHSDGNTYLSWLQQRPGQPPRLLIYKISNRLSGVPDRFSGSGAGTDFTLKISRVEGEDVGVYYCMQGTQFPRTFGQGTKVEIK"
  kon (M⁻¹ s⁻¹): "1.57e+06"
- BINDER: "H2bM10093N (antibody, V domains shown, Chimeric antibody, human variable domains and mouse constant domains; also called H2aM10093N; H2M10093N) VH: EVQLVESGGGLVKPGGSLRLSCVASGFTLSGYSMNWVRQAPGKGLEWVSSISTSSSYIYYADSVQGRFTISRDNAKNSLYLQMNSLRAEDTAVYYCVRKGANWIYFDYWGQGTLVTVSS VL: DIQMTQSPSSVSASVGDRVTITCRASQGISSLLAWFQQKPGKAPNLLIYAASSLQSGVPSRFSGSGSGTDFTLTISSLQPEDFATYYCQQAKSFPFTFGPGTKVDIK"
  kon (M⁻¹ s⁻¹): 521000
- BINDER: "H2aM10200N (antibody, V domains shown, Hybridoma-derived chimeric antibody, human variable domains and mouse constant domains (mouse Fc, prefix H2aM); also called H2M10200N) VH: QVQLVQSGAEVKKPGSSVKVSCKASGGTFSSYAISWVRQAPGQGLEWMGGIIPFFGTATYAQKFQGRVTITTDESTRTVYMELSSLRYEDTAVYYCARWYSGYGGDFDYWGQGTLVTVSS VL: AIQMTQSPSSLSASVGDRVTITCRASQGIRNDLGWFQQKPGKAPKLLIYAASSLQSGVPSRFSGSGSGTDFTLSISSLQPEDFATYYCLQDYSYPRTFGQGTKVEIK"
  kon (M⁻¹ s⁻¹): 844000
